Biological target: Estrogen receptor beta (Homo sapiens)
Assay: Agonist activity at ER-beta (unknown origin) transfected in HEK293T cells assessed as stimulation of transcriptional activity after 24 hrs by luciferase reporter gene assay relative to 17-beta estradiol
Type: cell-based
Conditions: HEK-293T
Kindly return fulfilled if reported Efficacy is no lower than 30%; return not fulfilled if it is lower.

molecule="COC(=O)CCCCCCC(=O)Nc1cccc(OS(=O)(=O)C2CC3OC2C(c2ccc(O)cc2)=C3c2ccc(O)cc2)c1 (configuration not stated)" group="not fulfilled"
molecule="O=C(O)CCCCCCC(=O)Nc1cccc(OS(=O)(=O)C2CC3OC2C(c2ccc(O)cc2)=C3c2ccc(O)cc2)c1 (configuration not stated)" group=fulfilled
molecule="Cc1ccc(OS(=O)(=O)C2CC3OC2C(c2ccc(NC(=O)CCCCCCC(=O)NO)cc2)=C3c2ccc(O)cc2)cc1 (racemic)" group=fulfilled
molecule="O=C(O)CCCCCCC(=O)Nc1ccc(C2=C(c3ccc(O)cc3)C3CC(S(=O)(=O)Oc4ccc(F)cc4)C2O3)cc1 (racemic)" group="not fulfilled"
molecule="O=C(O)CCCCCCC(=O)Nc1ccc(C2=C(c3ccc(O)cc3)C3CC(S(=O)(=O)Oc4ccccc4)C2O3)cc1 (racemic)" group=fulfilled
molecule="Cc1ccccc1OS(=O)(=O)C1CC2OC1C(c1ccc(NC(=O)CCCCCCC(=O)NO)cc1)=C2c1ccc(O)cc1 (racemic)" group="not fulfilled"
molecule="O=C(O)CCCCCCC(=O)Nc1ccc(C2=C(c3ccc(O)cc3)C3CC(S(=O)(=O)Oc4ccc(C(F)(F)F)cc4)C2O3)cc1 (racemic)" group="not fulfilled"

----------
Documented Efficacy across a set of compounds
Biological target: Estrogen receptor beta (Homo sapiens, UniProt Q92731)
Sequence (Q92731 whole entry): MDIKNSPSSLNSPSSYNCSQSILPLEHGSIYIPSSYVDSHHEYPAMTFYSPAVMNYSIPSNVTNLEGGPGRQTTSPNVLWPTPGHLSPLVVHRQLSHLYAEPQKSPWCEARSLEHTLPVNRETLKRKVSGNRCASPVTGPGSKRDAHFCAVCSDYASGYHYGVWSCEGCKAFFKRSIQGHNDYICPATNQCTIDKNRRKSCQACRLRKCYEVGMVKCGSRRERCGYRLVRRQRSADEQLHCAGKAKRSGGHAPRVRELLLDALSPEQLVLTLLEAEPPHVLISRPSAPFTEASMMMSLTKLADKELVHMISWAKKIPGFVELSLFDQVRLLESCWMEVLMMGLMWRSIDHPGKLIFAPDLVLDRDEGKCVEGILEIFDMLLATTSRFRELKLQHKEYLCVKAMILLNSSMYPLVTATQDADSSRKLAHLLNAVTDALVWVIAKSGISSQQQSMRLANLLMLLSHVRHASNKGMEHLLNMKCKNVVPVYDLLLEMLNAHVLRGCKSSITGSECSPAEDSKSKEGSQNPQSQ
Assay: Agonist activity at ER-beta (unknown origin) transfected in HEK293T cells assessed as stimulation of transcriptional activity after 24 hrs by luciferase reporter gene assay relative to 17-beta estradiol
Format: cell-based
Settings: HEK-293T
result type: Efficacy (%)

compound="O=C(CCCCCCC(=O)Nc1ccc(C2=C(c3ccc(O)cc3)C3CC(S(=O)(=O)Oc4ccc5ccccc5c4)C2O3)cc1)NO (centres undefined)" measured_number=-17
compound="O=C(O)CCCCCCC(=O)Nc1ccc(OS(=O)(=O)C2CC3OC2C(c2ccc(O)cc2)=C3c2ccc(O)cc2)cc1 (centres undefined)" measured_number=-5
compound="O=C(CCCCCCC(=O)Nc1ccc(C2=C(c3ccc(O)cc3)C3CC(S(=O)(=O)Oc4ccc(F)cc4)C2O3)cc1)NO (racemic)" measured_number=49
compound="O=C(CCCCCCC(=O)Nc1ccc(C2=C(c3ccc(O)cc3)C3CC(S(=O)(=O)Oc4cccc5ccccc45)C2O3)cc1)NO (racemic)" measured_number=36
compound="O=C(O)CCCCCCC(=O)Nc1ccc(C2=C(c3ccc(O)cc3)C3CC(S(=O)(=O)Oc4ccc5ccccc5c4)C2O3)cc1 (centres undefined)" measured_number=19
compound="COc1cccc(OS(=O)(=O)C2CC3OC2C(c2ccc(NC(=O)CCCCCCC(=O)O)cc2)=C3c2ccc(O)cc2)c1 (racemic)" measured_number=100
compound="O=C(CCCCCCC(=O)Nc1ccc(OS(=O)(=O)C2CC3OC2C(c2ccc(O)cc2)=C3c2ccc(O)cc2)cc1)NO (centres undefined)" measured_number=3
compound="O=C(O)CCCCCCC(=O)Nc1ccc(C2=C(c3ccc(O)cc3)C3CC(S(=O)(=O)Oc4cccc5ccccc45)C2O3)cc1 (centres undefined)" measured_number=-13
compound="O=C(O)CCCCCCC(=O)Nc1ccc(C2=C(c3ccc(O)cc3)C3CC(S(=O)(=O)Oc4ccccc4O)C2O3)cc1 (racemic)" measured_number=37
compound="Cc1cccc(OS(=O)(=O)C2CC3OC2C(c2ccc(NC(=O)CCCCCCC(=O)O)cc2)=C3c2ccc(O)cc2)c1 (racemic)" measured_number=-11
compound="O=C(O)CCCCCCC(=O)Nc1ccc(C2=C(c3ccc(O)cc3)C3CC(S(=O)(=O)Oc4cccc(O)c4)C2O3)cc1 (racemic)" measured_number=105
compound="O=C(CCCCCCC(=O)Nc1ccc(C2=C(c3ccc(O)cc3)C3CC(S(=O)(=O)Oc4ccc(Br)cc4)C2O3)cc1)NO (racemic)" measured_number=21
compound="Cc1cccc(OS(=O)(=O)C2CC3OC2C(c2ccc(NC(=O)CCCCCCC(=O)NO)cc2)=C3c2ccc(O)cc2)c1 (racemic)" measured_number=29
compound="O=C(O)CCCCCCC(=O)Nc1ccc(C2=C(c3ccc(O)cc3)C3CC(S(=O)(=O)Oc4ccc(Br)cc4)C2O3)cc1 (racemic)" measured_number=-3

----------
Target: Estrogen receptor beta (Homo sapiens, UniProt Q92731)
Test: Antagonist activity at ER-beta (unknown origin) transfected in HEK293T cells assessed as inhibition of transcriptional activity after 24 hrs by luciferase reporter gene assay
Simple rule here: IC50 less than 300 nM is T, otherwise F.

compound="Cc1cccc(OS(=O)(=O)C2CC3OC2C(c2ccc(NC(=O)CCCCCCC(=O)NO)cc2)=C3c2ccc(O)cc2)c1 (racemic)" group=F
compound="COc1ccccc1OS(=O)(=O)C1CC2OC1C(c1ccc(NC(=O)CCCCCCC(=O)O)cc1)=C2c1ccc(O)cc1 (racemic)" group=T
compound="O=C(CCCCCCC(=O)Nc1ccc(C2=C(c3ccc(O)cc3)C3CC(S(=O)(=O)Oc4ccc5ccccc5c4)C2O3)cc1)NO (centres undefined)" group=F
compound="O=C(CCCCCCC(=O)Nc1ccc(OS(=O)(=O)C2CC3OC2C(c2ccc(O)cc2)=C3c2ccc(O)cc2)cc1)NO (centres undefined)" group=F
compound="O=C(O)CCCCCCC(=O)Nc1ccc(C2=C(c3ccc(O)cc3)C3CC(S(=O)(=O)Oc4ccc(Br)cc4)C2O3)cc1 (racemic)" group=T
compound="O=C(O)CCCCCCC(=O)Nc1ccc(OS(=O)(=O)C2CC3OC2C(c2ccc(O)cc2)=C3c2ccc(O)cc2)cc1 (centres undefined)" group=T
compound="COC(=O)CCCCCCC(=O)Nc1ccc(OS(=O)(=O)C2CC3OC2C(c2ccc(O)cc2)=C3c2ccc(O)cc2)cc1 (centres undefined)" group=F
compound="O=C(O)CCCCCCC(=O)Nc1ccc(C2=C(c3ccc(O)cc3)C3CC(S(=O)(=O)Oc4ccc(O)cc4)C2O3)cc1 (racemic)" group=F
compound="O=C(O)CCCCCCC(=O)Nc1ccc(C2=C(c3ccc(O)cc3)C3CC(S(=O)(=O)Oc4ccc(F)cc4)C2O3)cc1 (racemic)" group=T

----------
Molecular target: Estrogen receptor (Homo sapiens) (UniProt P03372)
Sequence (whole entry): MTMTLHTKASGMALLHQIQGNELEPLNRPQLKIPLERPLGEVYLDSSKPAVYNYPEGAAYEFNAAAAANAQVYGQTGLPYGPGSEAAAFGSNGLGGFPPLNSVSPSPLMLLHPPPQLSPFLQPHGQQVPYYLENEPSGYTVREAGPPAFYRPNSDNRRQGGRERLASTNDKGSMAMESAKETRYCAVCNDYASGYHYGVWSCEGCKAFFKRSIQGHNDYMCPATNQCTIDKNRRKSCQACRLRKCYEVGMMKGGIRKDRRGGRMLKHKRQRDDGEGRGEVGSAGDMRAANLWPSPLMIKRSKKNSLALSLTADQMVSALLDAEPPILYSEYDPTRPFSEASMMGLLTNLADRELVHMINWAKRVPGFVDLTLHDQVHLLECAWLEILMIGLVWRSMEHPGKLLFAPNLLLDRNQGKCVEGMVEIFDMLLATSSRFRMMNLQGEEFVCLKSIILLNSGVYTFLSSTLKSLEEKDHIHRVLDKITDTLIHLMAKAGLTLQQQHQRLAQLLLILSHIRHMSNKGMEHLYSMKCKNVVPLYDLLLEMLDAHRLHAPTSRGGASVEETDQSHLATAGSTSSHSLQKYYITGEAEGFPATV
Assay: Agonist activity at ER-alpha (unknown origin) transfected in HEK293T cells assessed as stimulation of transcriptional activity after 24 hrs by luciferase reporter gene assay relative to 17-beta estradiol
Type: cell-based
Conditions: HEK-293T
result type: Efficacy (%)

compound="COC(=O)CCCCCCC(=O)Nc1cccc(OS(=O)(=O)C2CC3OC2C(c2ccc(O)cc2)=C3c2ccc(O)cc2)c1 (configuration not stated)" assayed_system="Estrogen receptor (Homo sapiens) (UniProt P03372)" result_type=Efficacy readout_units=% measured_number=16
compound="O=C(CCCCCCC(=O)Nc1ccc(C2=C(c3ccc(O)cc3)C3CC(S(=O)(=O)Oc4ccccc4)C2O3)cc1)NO (racemic)" assayed_system="Estrogen receptor (Homo sapiens) (UniProt P03372)" result_type=Efficacy readout_units=% measured_number=20
compound="O=C(O)CCCCCCC(=O)Nc1ccc(C2=C(c3ccc(O)cc3)C3CC(S(=O)(=O)Oc4ccc(O)cc4)C2O3)cc1 (racemic)" assayed_system="Estrogen receptor (Homo sapiens) (UniProt P03372)" result_type=Efficacy readout_units=% measured_number=79
compound="Cc1cccc(C)c1OS(=O)(=O)C1CC2OC1C(c1ccc(NC(=O)CCCCCCC(=O)O)cc1)=C2c1ccc(O)cc1 (racemic)" assayed_system="Estrogen receptor (Homo sapiens) (UniProt P03372)" result_type=Efficacy readout_units=% measured_number=61
compound="O=C(O)CCCCCCC(=O)Nc1ccc(C2=C(c3ccc(O)cc3)C3CC(S(=O)(=O)Oc4cccc5ccccc45)C2O3)cc1 (configuration not stated)" assayed_system="Estrogen receptor (Homo sapiens) (UniProt P03372)" result_type=Efficacy readout_units=% measured_number=5
compound="O=C(O)CCCCCCC(=O)Nc1ccc(C2=C(c3ccc(O)cc3)C3CC(S(=O)(=O)Oc4cccc(O)c4)C2O3)cc1 (racemic)" assayed_system="Estrogen receptor (Homo sapiens) (UniProt P03372)" result_type=Efficacy readout_units=% measured_number=77
compound="O=C(CCCCCCC(=O)Nc1ccc(C2=C(c3ccc(O)cc3)C3CC(S(=O)(=O)Oc4cccc5ccccc45)C2O3)cc1)NO (racemic)" assayed_system="Estrogen receptor (Homo sapiens) (UniProt P03372)" result_type=Efficacy readout_units=% measured_number=-22
